B1: TPR 5TU (parent)
chain: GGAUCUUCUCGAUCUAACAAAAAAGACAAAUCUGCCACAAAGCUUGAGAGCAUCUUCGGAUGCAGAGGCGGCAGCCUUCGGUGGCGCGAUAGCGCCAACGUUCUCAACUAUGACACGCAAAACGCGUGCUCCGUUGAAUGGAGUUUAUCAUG

Variants of: B1
Assay: polymerase ribozyme fitness, log enrichment relative to wild type (log ratio); higher = more active; in vitro selection for triplet polymerase activity
Variants at the floor of the assay were thinned out.
property measured: polymerase ribozyme fitness (log ratio)
Just the number, please.

Answered cases to consult:
INSERT INTO results (residue_change, property_measured, recorded_measurement) VALUES
  ('G92U A107U', 'polymerase ribozyme fitness (log ratio)', -3.2),
  ('C85A', 'polymerase ribozyme fitness (log ratio)', -1.28);

Identify measured polymerase ribozyme fitness (log ratio) associated with C5U A40G G84A A97G
-3.39

Identify measured polymerase ribozyme fitness (log ratio) associated with A30U C95G
-3.94
